- System: RWLeu4
- procedure_text: Concentration required to decrease [3H]thymidine incorporation by 50 percent in RWLeu4 CML cell line as compared to untreated cells was determined
- Assay type: functional, cell-based
- condition_set: Homo sapiens
readout_kind: IC50 (nM)

I. C=C1/C(=C\C=C2/CCC[C@@]3(C)C2CC[C@@H]3[C@H](C)/C=C/C(C)(O)C(C)(O)CO)C[C@@H](O)C[C@@H]1O (stereo partly drawn)
II. C=C1/C(=C\C=C2/CCC[C@]3(C)[C@@H]([C@H](C)/C=C/C(CO)C(C)(C)O)CC[C@@H]23)C[C@@H](O)C[C@@H]1O (stereo partly drawn)
Between these two entries, I and II , state which has the higher IC50. Please reply using the label of the selected record.
II

====

- System: RWLeu4
- procedure_text: Concentration required to decrease [3H]thymidine incorporation by 50 percent in RWLeu4 CML cell line as compared to untreated cells was determined
- Type: functional, cell-based
- condition_set: Homo sapiens
pIC50: −log10 of the molar value.
readout_kind: pIC50

molecule: C=C1/C(=C\C=C2/CCC[C@@]3(C)C2CC[C@@H]3[C@H](C)/C=C/C(C)C(C)(O)CO)C[C@@H](O)C[C@@H]1O (some centres undefined)
pIC50: 8.10
//
molecule: C=C1/C(=C\C=C2/CCC[C@]3(C)[C@@H]([C@H](C)/C=C/C(C)C(C)(C)O)CC[C@@H]23)C[C@@H](O)C[C@@H]1O (some centres undefined)
pIC50: 7.89
//
molecule: C=C1/C(=C\C=C2/CCC[C@]3(C)[C@@H]([C@H](C)CC[C@@H](O)C(C)(C)O)CC[C@@H]23)C[C@@H](O)C[C@@H]1O
pIC50: 7.96
//
molecule: C=C1/C(=C\C=C2/CCC[C@@]3(C)C2CC[C@@H]3[C@H](C)/C=C/C(C)(O)C(C)(C)O)C[C@@H](O)C[C@@H]1O (some centres undefined)
pIC50: 7.96
